SYSTEM_UNDER_TEST: Serine/threonine-protein kinase B-raf (Homo sapiens)
Sequence (P15056 whole entry): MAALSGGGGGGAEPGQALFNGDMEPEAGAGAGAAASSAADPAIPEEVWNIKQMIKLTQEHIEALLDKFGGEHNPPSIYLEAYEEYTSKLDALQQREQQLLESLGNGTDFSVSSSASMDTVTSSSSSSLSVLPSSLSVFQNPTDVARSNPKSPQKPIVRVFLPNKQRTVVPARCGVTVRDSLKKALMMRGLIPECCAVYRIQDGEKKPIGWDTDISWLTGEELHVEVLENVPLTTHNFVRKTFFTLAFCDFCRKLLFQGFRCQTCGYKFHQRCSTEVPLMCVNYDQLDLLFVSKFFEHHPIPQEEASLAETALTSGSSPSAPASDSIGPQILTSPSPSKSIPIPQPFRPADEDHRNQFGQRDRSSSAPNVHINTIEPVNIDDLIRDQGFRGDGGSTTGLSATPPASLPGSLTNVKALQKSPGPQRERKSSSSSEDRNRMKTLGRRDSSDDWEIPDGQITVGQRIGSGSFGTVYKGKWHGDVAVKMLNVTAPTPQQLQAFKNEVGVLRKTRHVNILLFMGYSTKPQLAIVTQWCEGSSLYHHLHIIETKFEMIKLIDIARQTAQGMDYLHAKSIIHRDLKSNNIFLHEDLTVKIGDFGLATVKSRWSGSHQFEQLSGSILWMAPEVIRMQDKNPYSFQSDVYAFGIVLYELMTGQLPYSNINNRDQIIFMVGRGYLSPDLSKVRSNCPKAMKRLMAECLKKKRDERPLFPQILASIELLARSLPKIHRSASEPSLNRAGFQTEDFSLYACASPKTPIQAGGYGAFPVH
ASSAY_METHOD_TEXT: Binding affinity to recombinant human full-length wild type B-Raf (unknown origin) assessed as SNNIFLHEDLTVK accessible protease cleavage peptide level by LC-MS/MS analysis relative to control; further: test concentration or dose not given here
Ratio vs 0.2: at or above is T, below is F.

CCN(C)S(=O)(=O)Nc1ccc(F)c(C(=O)c2c[nH]c3ncc(-c4ccc(Cl)cc4)cc23)c1F : F
Nc1ncnc2c1ncn2[C@@H]1O[C@H](COP(=O)(O)OP(=O)(O)O)[C@@H](O)[C@H]1O : T
Nc1ncnc2c1ncn2[C@@H]1O[C@H](COP(=O)(O)OP(=O)(O)OP(=O)(O)O)[C@@H](O)[C@H]1O : T
CCN(C)S(=O)(=O)Nc1ccc(F)c(C(=O)c2c[nH]c3ncc(Cl)cc23)c1F : T
Nc1ncnc2c1ncn2[C@@H]1O[C@H](COP(=O)(O)OP(=O)(O)NP(=O)(O)O)[C@@H](O)[C@H]1O : T
